test: Cmax in rat at 10 mg/kg, po measured after 24 hrs by LC/MS/MS analysis; assay type: ADME, organism-based; design: dose 10 mg/kg, time 24 hrs, route po; conditions: in vivo

{"columns": ["compound", "Cmax"],
 "data": [
  ["Cn1c(=O)cc(N2CCC[C@@H](N)C2)n(Cc2ccccc2C#N)c1=O [ALOGLIPTIN]", "393 ng/mL"]
]}

###

experiment: Half life in monkey at 0.5 mg/kg, iv measured after 0.083 hrs by liquid chromatography tandem mass spectrometry analysis; type: ADME, organism-based, Macaca mulatta; details: rhesus monkey, in vivo
attribute-measured: half-life (h)

{"columns": ["compound-structure", "observed-result"],
 "data": [
  ["N[C@H]1C[C@@H](N2CC3=C(C2)CS(=O)(=O)C3)CO[C@@H]1c1cc(F)ccc1F", 61.1]
]}
